Measured values drawn from ChEMBL document CHEMBL5233223 for this set.

System tested: Estrogen receptor (Homo sapiens)
Sequence (P03372 whole entry): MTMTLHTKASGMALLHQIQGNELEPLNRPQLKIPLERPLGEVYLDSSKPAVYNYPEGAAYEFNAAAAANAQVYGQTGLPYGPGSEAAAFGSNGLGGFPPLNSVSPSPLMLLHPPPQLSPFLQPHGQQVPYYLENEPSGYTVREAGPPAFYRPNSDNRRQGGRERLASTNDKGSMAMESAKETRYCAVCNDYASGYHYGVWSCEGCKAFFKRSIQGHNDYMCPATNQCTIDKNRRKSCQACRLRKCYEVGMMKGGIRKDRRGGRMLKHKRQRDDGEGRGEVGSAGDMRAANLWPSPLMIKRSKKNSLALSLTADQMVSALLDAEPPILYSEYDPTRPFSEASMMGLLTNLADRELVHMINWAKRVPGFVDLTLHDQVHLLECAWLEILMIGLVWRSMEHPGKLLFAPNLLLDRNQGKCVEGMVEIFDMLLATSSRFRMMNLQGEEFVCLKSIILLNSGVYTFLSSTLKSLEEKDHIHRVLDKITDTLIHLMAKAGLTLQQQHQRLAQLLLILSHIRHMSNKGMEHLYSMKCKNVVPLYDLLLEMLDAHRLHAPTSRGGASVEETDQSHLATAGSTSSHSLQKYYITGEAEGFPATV
Measurement type: IC50 (µM)

[
  {
    "Compound": "CC(C)=CCC[C@](C)(O)C1CC[C@]2(C)C1[C@H](O)CC1[C@@]3(C)CC[C@H](O)C(C)(C)C3CC[C@]12C (stereo partly specified)",
    "System tested": "Estrogen receptor (Homo sapiens)",
    "Readout unit": "µM",
    "Numeric readout": 26.3
  }
]

* * *

Experimental details: Cytotoxicity against human PBMC assessed as cell growth inhibition
Assay type: toxicity, cell-based
Run conditions: PBMC (peripheral blood mononuclear cells)
pIC50: −log10 of the molar value.

[
  {
    "Compound": "CC(C)=CCC[C@](C)(O)C1CC[C@]2(C)C1[C@H](O)CC1[C@@]3(C)CC[C@H](O)C(C)(C)C3CC[C@]12C (stereo partly specified)",
    "pIC50": 3.94
  }
]

* * *

Tested on: HL-60
Experimental details: Antiproliferative activity against human HL-60 cells assessed as cell growth inhibition
Type: functional, cell-based

[
  {
    "Molecule": "CCCCCCC/C=C\\CCCCCCCC(=O)O[C@H]1CC[C@@]2(C)C(CC[C@]3(C)C2C[C@@H](O)C2C([C@@](C)(O)CCC=C(C)C)CC[C@]23C)C1(C)C (stereo partly specified)",
    "IC50": "11.6 µM"
  }
]

* * *

System: HepG2
Experimental details: Antiproliferative activity against human HepG2 cells assessed as cell growth inhibition
Assay type: functional, cell-based

[
  {
    "Molecule": "CCCCCCC/C=C\\CCCCCCCC(=O)O[C@H]1CC[C@@]2(C)C(CC[C@]3(C)C2C[C@@H](O)C2C([C@@](C)(O)CCC=C(C)C)CC[C@]23C)C1(C)C (stereo partly specified)",
    "System tested": "HepG2",
    "IC50": "9.2 µM"
  }
]

* * *

Tested on: Hepatitis B virus
Experimental details: Antiviral activity against Hepatitis B virus infected in human HepG2.2.15 cells assessed as inhibition of HBeAg level by MTT assay
Type: functional, organism-based
Run conditions: HepG2 2.2.15
pIC50: −log10 of the molar value.

[
  {
    "Compound": "CC1(C)CCC[C@](C)(C2CC[C@]3(C)C2[C@H](O)CC2[C@@]4(C)CC[C@H](OC(=O)c5cccs5)C(C)(C)C4CC[C@]23C)O1 (stereo partly specified)",
    "pIC50": 4.74
  }
]

* * *

System: SW480
Experimental details: Antiproliferative activity against human SW480 cells assessed as cell growth inhibition by crystal violet staining based assay
Format: functional

[
  {
    "Compound": "CC(C)=CCC[C@](C)(O)C1CC[C@]2(C)C1[C@H](O)CC1[C@@]3(C)CC[C@H](O)C(C)(C)C3CC[C@]12C (stereo partly specified)",
    "IC50 / µM": 8.99
  }
]

* * *

Tested on: HCT-116
Experimental details: Antiproliferative activity against human HCT-116 cells assessed as cell growth inhibition by crystal violet staining based assay
Type: functional
Measurement type: IC50 (µM)

[
  {
    "Molecule": "CC(C)=CCC[C@](C)(O)C1CC[C@]2(C)C1[C@H](O)CC1[C@@]3(C)CC[C@H](O)C(C)(C)C3CC[C@]12C (stereo partly specified)",
    "Numeric readout": 4.69
  }
]

* * *

Catalogue of compounds with associated pIC50
System: HCT-116
Experimental details: Antiproliferative activity against human HCT-116 cells assessed as cell growth inhibition
Assay type: functional, cell-based
pIC50: −log10 of the molar value.

[
  {
    "Compound": "CC(=O)O[C@H]1CC[C@@]2(C)C(CC[C@]3(C)C2C[C@@H](O)C2C([C@@](C)(O)CCC=C(C)C)CC[C@]23C)C1(C)C (some centres not stated)",
    "pIC50": 4.36
  },
  {
    "Compound": "CC1(C)CCC[C@@](C)(C2CC[C@]3(C)C2[C@H](O)CC2[C@@]4(C)CC[C@H](O)C(C)(C)C4CC[C@]23C)O1 (some centres not stated)",
    "pIC50": 4.92
  }
]

* * *

Tested on: PC-3
Experimental details: Antiproliferative activity against human PC-3 cells assessed as cell growth inhibition
Type: functional, cell-based

[
  {
    "Molecule": "CC1(C)CCC[C@](C)(C2CC[C@]3(C)C2[C@H](O)CC2[C@@]4(C)C/C(=C/c5ccc(O)cc5)C(=O)C(C)(C)C4CC[C@]23C)O1 (stereo not given in full)",
    "IC50 (µM)": 11.7
  },
  {
    "Molecule": "CC1(C)CCC[C@](C)(C2CC[C@]3(C)C2[C@H](O)CC2[C@@]4(C)C/C(=C/c5ccc(C(F)(F)F)cc5)C(=O)C(C)(C)C4CC[C@]23C)O1 (stereo not given in full)",
    "IC50 (µM)": 35.4
  },
  {
    "Molecule": "CC1(C)CCC[C@](C)(C2CC[C@]3(C)C2[C@H](O)CC2[C@@]4(C)C/C(=C/c5cccs5)C(=O)C(C)(C)C4CC[C@]23C)O1 (stereo not given in full)",
    "IC50 (µM)": 47.3
  },
  {
    "Molecule": "COc1ccc(/C=C2/C[C@@]3(C)C(CC[C@]4(C)C3C[C@@H](O)C3C([C@@]5(C)CCCC(C)(C)O5)CC[C@]34C)C(C)(C)C2=O)cc1 (stereo not given in full)",
    "IC50 (µM)": 39.4
  },
  {
    "Molecule": "COc1cc(/C=C2/C[C@@]3(C)C(CC[C@]4(C)C3C[C@@H](O)C3C([C@@]5(C)CCCC(C)(C)O5)CC[C@]34C)C(C)(C)C2=O)cc(OC)c1OC (stereo not given in full)",
    "IC50 (µM)": 45.6
  }
]

* * *

System tested: 11-beta-hydroxysteroid dehydrogenase 1 (Homo sapiens, UniProt P28845)
Sequence (P28845 whole entry): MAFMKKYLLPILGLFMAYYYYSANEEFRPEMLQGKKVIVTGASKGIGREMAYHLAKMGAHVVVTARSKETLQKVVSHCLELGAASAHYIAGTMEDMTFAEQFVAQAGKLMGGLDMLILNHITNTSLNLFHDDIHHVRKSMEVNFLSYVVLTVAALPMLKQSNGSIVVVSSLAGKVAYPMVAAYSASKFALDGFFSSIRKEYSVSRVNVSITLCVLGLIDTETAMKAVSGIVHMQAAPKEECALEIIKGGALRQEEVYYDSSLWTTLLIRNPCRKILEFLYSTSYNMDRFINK
pIC50: −log10 of the molar value.

[
  {
    "Compound": "CO[C@@H]1CC(=O)[C@]2(C)C1[C@H](OC(C)=O)CC1[C@@]3(C)CC[C@H](O)C(C)(C)C3CC[C@]12C (stereo partly drawn)",
    "System tested": "11-beta-hydroxysteroid dehydrogenase 1 (Homo sapiens, UniProt P28845)",
    "pIC50": 7.82
  },
  {
    "Compound": "CO[C@H]1CC(=O)[C@]2(C)C1[C@H](OC(C)=O)CC1[C@@]3(C)CC[C@H](O)C(C)(C)C3CC[C@]12C (stereo partly drawn)",
    "System tested": "11-beta-hydroxysteroid dehydrogenase 1 (Homo sapiens, UniProt P28845)",
    "pIC50": 7.36
  },
  {
    "Compound": "CC(=O)O[C@@H]1CC2[C@@]3(C)CC[C@H](O)C(C)(C)C3CC[C@@]2(C)[C@]2(C)C(=O)C=CC12 (stereo partly drawn)",
    "System tested": "11-beta-hydroxysteroid dehydrogenase 1 (Homo sapiens, UniProt P28845)",
    "pIC50": 7.47
  }
]

* * *

System tested: 11-beta-hydroxysteroid dehydrogenase 1 (Mus musculus, UniProt P50172)
Sequence (P50172 whole entry): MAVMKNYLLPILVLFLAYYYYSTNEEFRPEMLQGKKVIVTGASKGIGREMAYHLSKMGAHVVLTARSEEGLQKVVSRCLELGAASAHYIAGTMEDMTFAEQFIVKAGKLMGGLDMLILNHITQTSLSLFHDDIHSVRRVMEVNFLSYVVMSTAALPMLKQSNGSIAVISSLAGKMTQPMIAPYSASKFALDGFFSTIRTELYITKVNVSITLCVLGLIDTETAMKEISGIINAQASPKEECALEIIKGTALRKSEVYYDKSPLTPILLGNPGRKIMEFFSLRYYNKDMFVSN
Measurement type: IC50 (µM)

[
  {
    "Compound": "CO[C@@H]1CC(=O)[C@]2(C)C1[C@H](OC(C)=O)CC1[C@@]3(C)CC[C@H](O)C(C)(C)C3CC[C@]12C (stereo partly specified)",
    "Readout unit": "µM",
    "Numeric readout": 3.3
  }
]
